// provenance: the NIST ThermoML archive (doi:10.1016/j.jct.2006.07.025)

# PROTOCOL CONDITIONS: 298.15 K; 101 kPa; Liquid; Vibrating tube method
Exercise: state measured mass density for each of the compounds provided.
Answers are plain numbers, in kg/m3.

Dear colleague, could you send me mass density for each of the items below? Thanks.
1. CCCOC(C)=O [propyl ethanoate]
2. Cc1cc(C)cc(C)c1 [1,3,5-trimethylbenzene]
3. CCCCOC(C)=O [butyl ethanoate]

Return:
882.64
861.04
876.18

mass density reading for Cc1ccc(C)c(C)c1 [1,2,4-trimethylbenzene] : 871.66
